All values here come from patent EP1614683B1.

assay: in vitro; format: in vitro ADME, human; conditions: human liver microsomes, 5 µM test compound, 37 °C, 2 h
ENDPOINT_NAME: % remain (HLM, 2 h) (%)

{"MOLECULE": "Cc1ccc(CNC(=O)c2ccccc2Sc2ccc3c(/C=C/c4ccccn4)n[nH]c3c2)o1 [Reference Example 35(h)]", "ENDPOINT_NAME": "% remain (HLM, 2 h)", "EXPERIMENTAL_VALUE": 9}
{"MOLECULE": "O=C(NCc1cccc(F)c1)c1ccccc1Sc1ccc2c(/C=C/c3ccccn3)n[nH]c2c1 [Reference Example 35(ff)]", "ENDPOINT_NAME": "% remain (HLM, 2 h)", "EXPERIMENTAL_VALUE": 31}
{"MOLECULE": "CCNC(=O)c1ccccc1Sc1ccc2c(/C=C/c3ccccn3)n[nH]c2c1 [Reference Example 35(x)]", "ENDPOINT_NAME": "% remain (HLM, 2 h)", "EXPERIMENTAL_VALUE": 37}
{"MOLECULE": "O=C(Nc1cccc(C(=O)c2ccc3c(-c4nc5ccccc5[nH]4)n[nH]c3c2)c1)c1ccccc1 [Reference Example 42(b)]", "ENDPOINT_NAME": "% remain (HLM, 2 h)", "EXPERIMENTAL_VALUE": 81}
{"MOLECULE": "O=C(NNc1ccccn1)c1ccccc1Sc1ccc2c(/C=C/c3ccccn3)n[nH]c2c1 [Reference Example 35(n)]", "ENDPOINT_NAME": "% remain (HLM, 2 h)", "EXPERIMENTAL_VALUE": 47}
{"MOLECULE": "Cn1nc(C(C)(C)C)cc1C(=O)Nc1cccc(C(=O)c2ccc3c(/C=C/c4ccccn4)n[nH]c3c2)c1 [Reference Example 41(n)]", "ENDPOINT_NAME": "% remain (HLM, 2 h)", "EXPERIMENTAL_VALUE": 70}
{"MOLECULE": "CCn1nc(C)cc1C(=O)Nc1cc(Nc2ccc3c(/C=C/c4ccccn4)n[nH]c3c2)c(F)cc1C [Example 48(a)]", "ENDPOINT_NAME": "% remain (HLM, 2 h)", "EXPERIMENTAL_VALUE": 55}
{"MOLECULE": "O=C(NC1CCC1)c1ccccc1Sc1ccc2c(/C=C/c3ccccn3)n[nH]c2c1 [Reference Example 35(c)]", "ENDPOINT_NAME": "% remain (HLM, 2 h)", "EXPERIMENTAL_VALUE": 17}
{"MOLECULE": "CS(=O)(=O)c1ccc(C(=O)Nc2cccc(Oc3ccc4c(/C=C/c5ccccn5)n[nH]c4c3)c2)s1 [Reference Example 31(c)]", "ENDPOINT_NAME": "% remain (HLM, 2 h)", "EXPERIMENTAL_VALUE": 87}
{"MOLECULE": "CCCNC(=O)c1ccccc1Sc1ccc2c(/C=C/c3ccccn3)n[nH]c2c1 [Reference Example 35(a)]", "ENDPOINT_NAME": "% remain (HLM, 2 h)", "EXPERIMENTAL_VALUE": 33}
{"MOLECULE": "O=C(Nc1cccc(C(=O)c2ccc3c(/C=C/c4ccccn4)n[nH]c3c2)c1)c1ccccc1 [Reference Example 42(a)]", "ENDPOINT_NAME": "% remain (HLM, 2 h)", "EXPERIMENTAL_VALUE": 92}
{"MOLECULE": "Cc1cc(C(=O)Nc2cccc(C(=O)c3ccc4c(/C=C/c5ccccn5)n[nH]c4c3)c2)on1 [Reference Example 41(m)]", "ENDPOINT_NAME": "% remain (HLM, 2 h)", "EXPERIMENTAL_VALUE": 0}
{"MOLECULE": "COc1ccc(CNC(=O)c2ccccc2Sc2ccc3c(/C=C/c4ccccn4)n[nH]c3c2)cc1 [Reference Example 35(g)]", "ENDPOINT_NAME": "% remain (HLM, 2 h)", "EXPERIMENTAL_VALUE": 53}
